Experiment: photocatalytic hydrogen evolution rate (per 5 mg catalyst); higher = more photocatalytic H2 evolution; extreme values may be limits of the assay;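 further: aromatic molecules in triethylamine/methanol/water with Pt photoreduced in situ, irradiated 3 h under a 1 sun AM 1.5G solar simulator (350–1000 nm), H2 quantified by headspace gas chromatography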;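 further: listed molecule itself used as the photocatalyst at 5 mg per vial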
Conditions: catalyst mass (mg): 5; Pt cocatalyst (wt%): 3; sacrificial medium: triethylamine/methanol/water 1:1:1
PROPERTY MEASURED: photocatalytic hydrogen evolution rate (µmol/h)
# value in µmol/h; strip the unit string

Consider the reported photocatalytic hydrogen evolution rate for these molecules:
MOL	PROPERTY MEASURED	UNIT STRING	REPORTED MEASUREMENT
COC(OC)(C(=O)c1ccccc1)c1ccccc1	photocatalytic hydrogen evolution rate	µmol/h	1.18
CC(=O)c1ccc(C(C)=O)cc1	photocatalytic hydrogen evolution rate	µmol/h	5.52
Nc1ccc(-c2ccc(N)c([N+](=O)[O-])c2)cc1[N+](=O)[O-]	photocatalytic hydrogen evolution rate	µmol/h	0

Input: Reported photocatalytic hydrogen evolution rate for "O=c1c(Br)c[nH]cc1Br" : what is it?
Output: 0.000384

Input: Another molecule to check: "N#Cc1ccc(CCc2ccc(C#N)cc2)cc1"
Output: 0

Input: Consider next the molecule "c1ccc2c(c1)c1ccccc1c1ccccc21" in the same way.
Output: 0.022

Input: Repeat for the following molecule: "Cc1cc2c(cc1N)S(=O)(=O)c1cc(N)c(C)cc1-2"
Output: 0

Input: Proceed to "N#CCC(=O)c1ccccc1"
Output: 0

Input: Can you handle "Cc1cccc(N(c2ccc(C=O)cc2)c2cccc(C)c2)c1" next?
Output: 0.245

Input: // query: "N#Cc1ccc(C=O)cc1F"
Output: 0.104

Input: What about this molecule? "O=Cc1ccc(O)c(O)c1"
Output: 0

Input: Note, next up: "OC1c2ccccc2-c2ccccc21"
Output: 0

Input: What about this molecule? "Nc1c(F)c(F)c(-c2c(F)c(F)c(N)c(F)c2F)c(F)c1F"
Output: 0
